B1: HDV Ribozyme (parent)
chain: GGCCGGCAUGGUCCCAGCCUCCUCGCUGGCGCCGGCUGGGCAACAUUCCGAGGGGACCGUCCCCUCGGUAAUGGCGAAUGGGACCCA

# Variants of: B1
# TEST DETAILS: self-cleavage, relative activity (ratio to wild type); higher = more cleavage; co-transcriptional
Labels assigned by self-cleavage range: A: < 0.2; B: ≥ 0.2 and < 0.6; C: ≥ 0.6

## Input Class for C7U U20G ?
## Output A

## Input Another variant to look at: A51G A70C
## Output C

## Input Another variant to look at: G6U C14G
## Output A

## Input Another variant to look at: G5C A71U
## Output A

## Input Another variant to look at: U9C G39C
## Output B

## Input Another variant to look at: G28U U46C
## Output A

## Input Another variant to look at: A56C A87C
## Output C

## Input Another variant to look at: G2A A87C
## Output B

## Input Another variant to look at: C57A U72G
## Output C

## Input Another variant to look at: C41U C86A
## Output C

## Input Another variant to look at: C21A G31C
## Output A

## Input Another variant to look at: A42C G82C
## Output A

## Input Another variant to look at: G81U C86G
## Output B

## Input Another variant to look at: A51G C85A
## Output C

## Input Another variant to look at: U23C C24A
## Output B

## Input Another variant to look at: C30U G73A
## Output B
